- System: BasE (2,3-dihydroxybenzoate-AMP ligase), Acinetobacter baumannii ATCC 17978
- Assay Info: inhibitors of A. baumannii BasE – biochemical, Acinetobacter baumannii ATCC 17978, fluorescence polarization, primary screen (AID 485350);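 further: 0% = negative plate control signal and 100% = positive plate control signal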
- Experimental Context: purified BasE, fluorescence polarization binding displacement; stronger effect = higher value; concentration not given here
Screen size: about 84,000 compounds; about 95 (0.1%) were called active. Many of the other results were omitted from the sample, so actives are more common in it than they were.
Readout Label: inhibition (%)
The response must be a number in % with no trailing unit.

inhibition measured on CCCN(CCC)Cc1ccc(CNc2nc(-c3ccc(OC)cc3)no2)o1 = -0.49

inhibition measured on Cc1nn2cnnc2c(C)c1CCC(=O)NCCCc1ccccc1 = -4.03

inhibition measured on CCN(C(=O)COc1ccc(Cl)cc1C)c1ccccc1 = 0.83

inhibition measured on Nc1ccccc1C(=O)NCC1CCCO1 (centres undefined) = -4.47

inhibition measured on O=C(Nc1ccncc1)OCCc1ccccn1 = 4.83

New cases:
inhibition measured on CC(C(=O)N1CCCc2ccccc21)n1nc(-c2cccs2)oc1=O (centres undefined) = -0.37

inhibition measured on Cn1c(N)c(C(=O)NCc2ccccc2)c2nc3ccccc3nc21 = -1.54

inhibition measured on O=S(=O)(NCCC1=CCCCC1)c1ccc(Cl)cc1 = -0.06

inhibition measured on O=C1N(CNc2ccccc2)CCN1CNc1ccccc1 = 1.83

inhibition measured on O=C(O)CN1CCN(C(c2ccccc2)c2ccccc2)CC1 = 1.06

inhibition measured on NNC(=O)c1ccc(COc2ccccc2)o1 = -1.29

inhibition measured on CCOC(=O)/C=C1\SCC(=O)N1Cc1cc(Cl)cc2c1OCOC2 = -0.76

----------
Below: a set of entries, each annotated with reported inhibition.
- System: BasE (2,3-dihydroxybenzoate-AMP ligase), Acinetobacter baumannii ATCC 17978
- Assay Info: inhibitors of A. baumannii BasE – biochemical, Acinetobacter baumannii ATCC 17978, fluorescence polarization, primary screen (AID 485350);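 further: 0% = negative plate control signal and 100% = positive plate control signal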
- Experimental Context: purified BasE, fluorescence polarization binding displacement; stronger effect = higher value; concentration not given here
The campaign covered roughly 84,000 compounds. About 95 (0.1%) were called active. Many of the other results were omitted from the sample, so actives are more common in it than they were.

# count of solved cases: 3
inhibition measured on CCOC(=O)Cn1c(=O)c(=O)n(C)c2c1c(C)nn2-c1ccccc1 = -0.65% (inactive)

inhibition measured on Cc1cc(C)n(C(=O)N2c3ccccc3Sc3ccccc32)n1 = 2.13% (inactive)

inhibition measured on O=C(OCCN1CCCCC1)c1ccc(F)cc1 = -3.82% (inactive)

New cases:
inhibition measured on C=CCC(CC=C)(C(N)=O)c1ccccc1 = 2.87% (inactive)

inhibition measured on O=C1Nc2ccccc2OC1CC(=O)N1CCN(Cc2ccc3c(c2)OCO3)CC1 (stereo not drawn) = -0.54% (inactive)

inhibition measured on Cc1nc(SCC(=O)NC(C)(C#N)C2CC2)c2c(C)c(C)sc2n1 (stereo not drawn) = -0.09% (inactive)

inhibition measured on CCC(CO)n1c(SCC(=O)Nc2ccc(C)c(C)c2)nc2cc(OC)c(OC)cc2c1=O (stereo not drawn) = 1.28% (inactive)

inhibition measured on COc1ccc(Cl)cc1NC(=O)CN1C(=O)CSC(C)C1=O (stereo not drawn) = 0.33% (inactive)

inhibition measured on CCOc1ccnc2sc(C(=O)c3cccnc3)c(N)c12 = 1.88% (inactive)

inhibition measured on OC(CN1CCCCC1)CN1c2ccccc2Sc2ccccc21 (stereo not drawn) = -0.28% (inactive)

inhibition measured on C=CCn1cc(/C=C(\C#N)C(=O)NC2CCCCC2)c2ccccc21 = 2.71% (inactive)

----------
- System: BasE (2,3-dihydroxybenzoate-AMP ligase), Acinetobacter baumannii ATCC 17978
- Assay Info: inhibitors of A. baumannii BasE – biochemical, Acinetobacter baumannii ATCC 17978, fluorescence polarization, primary screen (AID 485350);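 further: 0% = negative plate control signal and 100% = positive plate control signal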
- Experimental Context: purified BasE, fluorescence polarization binding displacement; stronger effect = higher value; concentration not given here
About 95 (0.1%) of roughly 84,000 compounds were called active. The full list was thinned out, with actives kept by preference.
Readout Label: inhibition (%)
The response must be a number in % with no trailing unit.

inhibition measured on CCOCCCn1c(CC(N)=O)n[nH]c1=S = 0.4

inhibition measured on Oc1ccc(N=Cc2cn(-c3ccccc3)nc2-c2ccco2)cc1 = -0.83

inhibition measured on Cc1cccc(C(CC(=O)NCc2cccs2)n2cccc2)c1 (stereo not given) = 1.33

inhibition measured on CCn1cnc2c(=O)oc3ccc(S(=O)(=O)N4CCN(c5cc(Cl)ccc5C)CC4)cc3c21 = 2.98

inhibition measured on CCN(CC(=O)NCc1cccs1)C(=O)c1ccc2c(c1)SC1=NS(=O)(=O)CCN12 = 0.92

New cases:
inhibition measured on C=CCn1c(CCSCc2ccc(OC)cc2)n[nH]c1=S = -0.73

inhibition measured on Cc1ccsc1C(=O)OCc1nc2sc3c(c2c(=O)[nH]1)CCCC3 = -0.18

inhibition measured on CC(C)CN(CC(C)C)C(=O)C1CCN(S(=O)(=O)c2cccc3nsnc23)CC1 = -0.22

inhibition measured on Cc1ccc(S(=O)(=O)NC(c2ccccc2)c2nnc(-c3ccccc3)o2)cc1 (stereo not given) = -0.19

inhibition measured on O=C(Nc1ccccc1)Nc1ccc(Cl)c(Cl)c1 = 2.62

----------
- System: BasE (2,3-dihydroxybenzoate-AMP ligase), Acinetobacter baumannii ATCC 17978
- Assay Info: inhibitors of A. baumannii BasE – biochemical, Acinetobacter baumannii ATCC 17978, fluorescence polarization, primary screen (AID 485350);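 further: 0% = negative plate control signal and 100% = positive plate control signal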
- Experimental Context: purified BasE, fluorescence polarization binding displacement; stronger effect = higher value; concentration not given here
Screen size: about 84,000 compounds; about 95 (0.1%) were called active. The entries come from a sample that favours actives as a whole.
Below: a set of entries, each annotated with reported inhibition.
The response must be a number in % with no trailing unit.

# count of solved cases: 8
Value sought: inhibition, system BasE (2,3-dihydroxybenzoate-AMP ligase), Acinetobacter baumannii ATCC 17978, item C/C(=N/NC(=O)CCc1ccccc1)C1CC1 . Result: 2.92

Value sought: inhibition, system BasE (2,3-dihydroxybenzoate-AMP ligase), Acinetobacter baumannii ATCC 17978, item CNC(=O)c1ccc(N2CCOc3ccc(Cl)cc32)s1 . Result: -0.32

Value sought: inhibition, system BasE (2,3-dihydroxybenzoate-AMP ligase), Acinetobacter baumannii ATCC 17978, item Cc1noc(/C=C/N2CCOCC2)c1S(=O)(=O)N(C)CCc1ccc(Cl)cc1 . Result: 3.54

Value sought: inhibition, system BasE (2,3-dihydroxybenzoate-AMP ligase), Acinetobacter baumannii ATCC 17978, item O=C(CSc1ncnc2c1nnn2Cc1ccc(F)cc1)NC1CCCC1 . Result: -1.58

Value sought: inhibition, system BasE (2,3-dihydroxybenzoate-AMP ligase), Acinetobacter baumannii ATCC 17978, item O=C(CSc1cccc[n+]1[O-])c1cc2c3c(c1)CC(=O)N3CCC2 . Result: 1.79

Value sought: inhibition, system BasE (2,3-dihydroxybenzoate-AMP ligase), Acinetobacter baumannii ATCC 17978, item O=C(CC1SC(=Nc2ccccc2)NC1=O)NC1CC1 (configuration not stated) . Result: 0.62

Value sought: inhibition, system BasE (2,3-dihydroxybenzoate-AMP ligase), Acinetobacter baumannii ATCC 17978, item Nn1c(SCC2CCCCO2)nnc1-c1ccncc1 (configuration not stated) . Result: 1.26

Value sought: inhibition, system BasE (2,3-dihydroxybenzoate-AMP ligase), Acinetobacter baumannii ATCC 17978, item OCC1OC(Oc2ccc3cc(Br)ccc3c2)C(O)C(O)C1O (configuration not stated) . Result: -1.6

New cases:
Value sought: inhibition, system BasE (2,3-dihydroxybenzoate-AMP ligase), Acinetobacter baumannii ATCC 17978, item Cc1oc(-c2cccc(Cl)c2)nc1CN1CCCC(C(=O)N2CCN(c3cccc(Cl)c3)CC2)C1 (configuration not stated) . Result: -0.15

Value sought: inhibition, system BasE (2,3-dihydroxybenzoate-AMP ligase), Acinetobacter baumannii ATCC 17978, item CC(Sc1nnc(N)s1)C(=O)NCCC1=CCCCC1 (configuration not stated) . Result: 2.13

Value sought: inhibition, system BasE (2,3-dihydroxybenzoate-AMP ligase), Acinetobacter baumannii ATCC 17978, item c1snnc1C12CC3CC(CC(C3)C1)C2 . Result: -2.21

Value sought: inhibition, system BasE (2,3-dihydroxybenzoate-AMP ligase), Acinetobacter baumannii ATCC 17978, item Clc1ccc(/C=N/NCc2cn3ccsc3n2)cc1 . Result: 0.12

Value sought: inhibition, system BasE (2,3-dihydroxybenzoate-AMP ligase), Acinetobacter baumannii ATCC 17978, item COc1ccccc1NC(=O)c1ccc(N2CC3CC(C2)c2cccc(=O)n2C3)c(NC(=O)c2cccnc2)c1 (configuration not stated) . Result: -1.5

Value sought: inhibition, system BasE (2,3-dihydroxybenzoate-AMP ligase), Acinetobacter baumannii ATCC 17978, item CCn1c2ccccc2c2nnc(SCC(=O)NCCc3ccc(OC)c(OC)c3)nc21 . Result: -1.45

Value sought: inhibition, system BasE (2,3-dihydroxybenzoate-AMP ligase), Acinetobacter baumannii ATCC 17978, item CCCCn1c(N)c(N(C(=O)c2ccc(Cl)c(Cl)c2)C2CCCC2)c(=O)[nH]c1=O . Result: 2.21

Value sought: inhibition, system BasE (2,3-dihydroxybenzoate-AMP ligase), Acinetobacter baumannii ATCC 17978, item COC(=O)C1=CN(C(C)C)C=C(C(=O)OC)C1c1cccs1 . Result: -11.7

Value sought: inhibition, system BasE (2,3-dihydroxybenzoate-AMP ligase), Acinetobacter baumannii ATCC 17978, item Cc1ccc(NC(=O)CCn2c(=O)sc3ccccc32)cc1C . Result: 2.16

Value sought: inhibition, system BasE (2,3-dihydroxybenzoate-AMP ligase), Acinetobacter baumannii ATCC 17978, item CCCc1nnc(SCC(=O)N2CCCc3ccccc32)n1CC . Result: -5.47

Value sought: inhibition, system BasE (2,3-dihydroxybenzoate-AMP ligase), Acinetobacter baumannii ATCC 17978, item O=C(O)Cc1ccc(C(F)(F)F)cc1 . Result: -1.44

Value sought: inhibition, system BasE (2,3-dihydroxybenzoate-AMP ligase), Acinetobacter baumannii ATCC 17978, item Cc1ccccc1Nc1nc(N)nc(CNCc2ccccc2)n1 . Result: 5.66

Value sought: inhibition, system BasE (2,3-dihydroxybenzoate-AMP ligase), Acinetobacter baumannii ATCC 17978, item CCNC(=O)c1ccc(OCc2c(C)noc2C)c(OC)c1 . Result: -0.55

Value sought: inhibition, system BasE (2,3-dihydroxybenzoate-AMP ligase), Acinetobacter baumannii ATCC 17978, item CCN(Cc1ccccc1)C(=O)c1cccc(N2C(=O)CCC2=O)c1 . Result: 1.51

Numbers sourced from PubChem BioAssay AID485350.
